test system: PPARg:RXRa 90nM:30nM, anti-RXR (NR concentration 90 nM, RXRa partner concentration 30 nM); assay: PBM binding z-score (relative to random genomic background probes); higher = stronger binding; sequences stand for … in GC…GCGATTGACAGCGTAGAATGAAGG
Quantity name: PBM binding z-score
# output: bare number, no unit

Below: 5 sequences and their reported PBM binding z-score.
[
  {
    "Seq string": "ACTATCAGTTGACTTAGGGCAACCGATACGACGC",
    "Endpoint value": 0.385
  },
  {
    "Seq string": "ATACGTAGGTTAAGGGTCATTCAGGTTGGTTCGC",
    "Endpoint value": 8.26
  },
  {
    "Seq string": "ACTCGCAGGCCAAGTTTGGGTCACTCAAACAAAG",
    "Endpoint value": -0.263
  },
  {
    "Seq string": "ATATGTAGGTTACATCCTGGTCATTCAGGCTATG",
    "Endpoint value": 3.57
  },
  {
    "Seq string": "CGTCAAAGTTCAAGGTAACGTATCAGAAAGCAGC",
    "Endpoint value": 3.65
  }
]

Next sequence, PBM binding z-score to be filled in.
Q: Find the recorded PBM binding z-score belonging to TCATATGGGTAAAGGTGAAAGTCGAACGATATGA and report it.
A: 5.69

###

test system: RARg:RXRa (NR concentration 270 nM, RXRa partner concentration 90 nM); assay: PBM binding z-score (relative to random genomic background probes); higher = stronger binding; sequences stand for … in GC…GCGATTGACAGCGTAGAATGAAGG
The following ranges of PBM binding z-score define the classes used here: small value = under 0.3, mid value = from 0.3 up to 5, large value = 5 and over

Worked cases, answers included:
[
  {
    "Seq string": "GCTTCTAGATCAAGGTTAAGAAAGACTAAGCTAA",
    "Class label": "small value"
  },
  {
    "Seq string": "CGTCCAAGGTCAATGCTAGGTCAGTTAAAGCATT",
    "Class label": "large value"
  },
  {
    "Seq string": "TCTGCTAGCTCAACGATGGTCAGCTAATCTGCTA",
    "Class label": "small value"
  }
]

Q: For this sequence, which bin applies? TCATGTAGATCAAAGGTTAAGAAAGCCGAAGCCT
A: mid value

Q: For this sequence, which bin applies? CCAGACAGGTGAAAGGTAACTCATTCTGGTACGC
A: mid value

Q: For this sequence, which bin applies? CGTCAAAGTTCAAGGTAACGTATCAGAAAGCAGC
A: large value

###

tested on: RXRa DBDmut IVT, anti-RXR (DBD mutation: RXRa K156A/R161A, NR concentration 90 nM); assay: PBM binding z-score (relative to random genomic background probes); higher = stronger binding; sequences stand for … in GC…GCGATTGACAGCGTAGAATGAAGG
Quantity name: PBM binding z-score
# output: bare number, no unit

Below: 5 sequences and their reported PBM binding z-score.
[
  {
    "Seq string": "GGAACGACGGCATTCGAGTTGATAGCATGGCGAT",
    "Quantity name": "PBM binding z-score",
    "Endpoint value": -0.144
  },
  {
    "Seq string": "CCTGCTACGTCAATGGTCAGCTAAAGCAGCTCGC",
    "Quantity name": "PBM binding z-score",
    "Endpoint value": 0.29
  },
  {
    "Seq string": "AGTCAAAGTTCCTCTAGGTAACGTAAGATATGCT",
    "Quantity name": "PBM binding z-score",
    "Endpoint value": 0.711
  },
  {
    "Seq string": "TGGCAAAGTTCAAAGGTAACGTAAGTATCCACAC",
    "Quantity name": "PBM binding z-score",
    "Endpoint value": 4.22
  },
  {
    "Seq string": "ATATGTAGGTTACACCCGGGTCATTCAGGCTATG",
    "Quantity name": "PBM binding z-score",
    "Endpoint value": 0.528
  }
]

Next sequence, PBM binding z-score to be filled in.
Q: Find the recorded PBM binding z-score belonging to TCTTGTAGATCAATTGAGGTTAAGAAAGTGCGCT and report it.
A: 1.05
